assay: Serum pharmacokinetics, stratum A; assay type: in vivo, human; conditions: human, serum, oral, 100 mg/m2, C MAX, stratum A1 (whole tablets), 100 mg/m^2, D1, median (range)
Outcome measure: Cmax (nM)
API: value field is a number in nM; no unit string.

INPUT: Supply Cmax value. Item: CC1(COc2ccc3c(c2)ncn3-c2ccc3cccc(N4CCC(N)CC4)c3n2)COC1 [crenolanib]
OUTPUT: 645

----------
assay: Serum pharmacokinetics, stratum A; format: in vivo, human; settings: human, serum, oral, 100 mg/m2, Half-life, stratum A1 (whole tablets), 100 mg/m^2, D28, median (range)
Outcome measure: half-life (h)
Just the number in h, nothing appended.

INPUT: Please look at this compound and report its half-life: `CC1(COc2ccc3c(c2)ncn3-c2ccc3cccc(N4CCC(N)CC4)c3n2)COC1`
OUTPUT: 4.9
